B1: Connector enhancer of kinase suppressor of ras 2, residues 9 to 71; numbered along this chain, Q8WXI2 (parent)
chain: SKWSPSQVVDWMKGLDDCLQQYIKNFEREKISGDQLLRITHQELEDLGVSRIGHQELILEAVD

Variants of: B1
PROTOCOL_DESCRIPTION: abundance fitness (aPCA) (normalised: wild type 0, dead -1); higher = more abundant; growth selection in yeast, the domain comes from the species named
CONDITION_DETAILS: Homo sapiens
RECORDED_ENDPOINT: abundance fitness
Field format: numeric only.

Examples with their reported abundance fitness follow.
L19P	-0.602
Q42W	-0.767
V49C	-0.374
R28Y	-0.28
Q42P	-0.254
E45P	-0.784
K30N	-0.075
D17P	-0.051
E60P	-0.905
G33P	-0.84

Note to self: abundance fitness recorded for E29W was -0.215

Note to self: abundance fitness recorded for Q55I was -0.281

Note to self: abundance fitness recorded for L19V was -0.112

Note to self: abundance fitness recorded for G33L was -0.423

Note to self: abundance fitness recorded for R28M was -0.094

Note to self: abundance fitness recorded for D16F was -0.512

Note to self: abundance fitness recorded for R28T was -0.058

Note to self: abundance fitness recorded for E60R was -0.072

Note to self: abundance fitness recorded for I39N was -0.67

Note to self: abundance fitness recorded for G33N was -0.947

Note to self: abundance fitness recorded for Q55N was -1.01

Note to self: abundance fitness recorded for E29L was -0.179

Note to self: abundance fitness recorded for R28W was -0.638

Note to self: abundance fitness recorded for I39C was -0.416

Note to self: abundance fitness recorded for H41D was -0.229

Note to self: abundance fitness recorded for G48D was -0.64

Note to self: abundance fitness recorded for L44N was -0.87

Note to self: abundance fitness recorded for L37M was 0.012

Note to self: abundance fitness recorded for D46Y was -0.194
